# assayed system: r(G4C2)8
# measurement description: Biolayer interferometry (BLI) binding
# condition set: BLI; read-out: Kd, 2
Quick reference: Kd of the listed items.

smiles record	Kd / nM
Cc1c2ccncc2c(C)c2c1[nH]c1ccc(OCCOCCOCCNCCOCCOCCOc3ccc4[nH]c5c(C)c6ccncc6c(C)c5c4c3)cc12	900
CC(=O)N(CCOCCOCCOc1ccc2[nH]c3c(C)c4ccncc4c(C)c3c2c1)CCOCCOCCOc1ccc2[nH]c3c(C)c4ccncc4c(C)c3c2c1	10600
Cc1c2ccncc2c(C)c2c1[nH]c1ccc(OCCOCCOCCOCCOCCOCCOc3ccc4[nH]c5c(C)c6ccncc6c(C)c5c4c3)cc12	120
